# ASSAY_DETAILS: Aqueous solubility
# Format: physicochemical
# ASSAY_SETUP: water (aqueous)
MEASURED_PROPERTY: solubility

input: State the recorded solubility for this entry: CCOc1cc([C@@H](CS(C)(=O)=O)N2Cc3cccc(NC(=O)C4CC4)c3C2=O)ccc1OC [Compound A]
output: ~2 µg/mL
